# Target System: Nucleotide-binding oligomerization domain-containing protein 1 (Homo sapiens, UniProt Q9Y239)
# Sequence (Q9Y239 whole entry, the tested form may be a part): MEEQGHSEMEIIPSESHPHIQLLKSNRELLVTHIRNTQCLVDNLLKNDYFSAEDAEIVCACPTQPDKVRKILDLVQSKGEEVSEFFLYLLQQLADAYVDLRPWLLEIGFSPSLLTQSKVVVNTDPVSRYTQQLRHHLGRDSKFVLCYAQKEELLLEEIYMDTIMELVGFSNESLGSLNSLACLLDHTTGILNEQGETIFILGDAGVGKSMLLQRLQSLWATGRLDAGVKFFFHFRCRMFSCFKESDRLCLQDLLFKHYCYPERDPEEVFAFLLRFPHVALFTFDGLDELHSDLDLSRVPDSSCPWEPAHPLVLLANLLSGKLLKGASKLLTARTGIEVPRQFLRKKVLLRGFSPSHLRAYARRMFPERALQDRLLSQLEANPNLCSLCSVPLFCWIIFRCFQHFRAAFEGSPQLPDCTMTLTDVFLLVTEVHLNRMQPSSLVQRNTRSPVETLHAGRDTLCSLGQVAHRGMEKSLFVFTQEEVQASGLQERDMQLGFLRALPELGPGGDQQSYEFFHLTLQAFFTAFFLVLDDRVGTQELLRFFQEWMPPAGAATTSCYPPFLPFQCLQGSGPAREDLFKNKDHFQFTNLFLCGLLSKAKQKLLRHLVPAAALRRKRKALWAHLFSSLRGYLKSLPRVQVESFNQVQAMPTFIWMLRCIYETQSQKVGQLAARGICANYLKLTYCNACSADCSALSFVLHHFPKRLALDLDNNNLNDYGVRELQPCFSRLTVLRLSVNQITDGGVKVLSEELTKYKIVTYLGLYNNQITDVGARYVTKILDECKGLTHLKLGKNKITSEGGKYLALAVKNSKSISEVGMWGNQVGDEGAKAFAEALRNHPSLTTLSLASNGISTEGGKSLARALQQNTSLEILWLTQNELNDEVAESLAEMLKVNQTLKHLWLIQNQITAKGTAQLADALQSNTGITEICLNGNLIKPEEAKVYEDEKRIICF
# Run Description: blockers of NOD1 pathway activity – revised, SAR follow-up (AID 2333)
# Format: functional
Active and inactive are the calls of the source.
Here the recorded IC50 is given for each entry.

Problem: Suppose we examine the molecule `Cc1cc(C(=O)COC(=O)c2ccccc2O)c(C)n1Cc1cccs1` ; what IC50 value has been reported?
Solution: 0.285 µM (active)

====

# Target System: FAD-linked sulfhydryl oxidase ALR (Homo sapiens)
# Sequence (P55789 whole entry): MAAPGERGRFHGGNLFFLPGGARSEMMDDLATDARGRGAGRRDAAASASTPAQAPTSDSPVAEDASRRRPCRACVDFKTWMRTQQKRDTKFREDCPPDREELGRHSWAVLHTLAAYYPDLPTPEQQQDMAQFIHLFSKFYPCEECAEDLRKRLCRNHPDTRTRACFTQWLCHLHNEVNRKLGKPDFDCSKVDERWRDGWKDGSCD
# Run Description: ALR-catalysed DTT oxidation blockers – biochemical, H2O2 detection, luminescence, cherry-pick, dose response (AID 493248)
Calls of active or inactive are those of the source.
Parameter: AC50

Example entries and their recorded answers appear below.
- COc1cc(/C=N/NS(=O)(=O)c2ccc(C)c([N+](=O)[O-])c2)ccc1O: 0.181 µM (active)
- COc1ccc(-n2nc(C)cc2Nc2ccccc2C(=O)O)cc1: 3.72 µM (active)

Problem: Suppose we examine the compound `O=C(c1ccc2c(c1)OCO2)N1CCN(c2ccccc2)CC1` ; what AC50 value has been reported?
Solution: 13.9 µM (active)

Problem: Suppose we examine the compound `Cc1cc(C(=O)Nc2nnc(C3CCCCC3)s2)no1` ; what AC50 value has been reported?
Solution: 5.82 µM (active)

Problem: Suppose we examine the compound `Cc1ccn2cc(-c3ccc(O)c(O)c3)nc2c1` ; what AC50 value has been reported?
Solution: 0.558 µM (active)

Problem: Suppose we examine the compound `CC(C)c1ccc2c(c1)C(=O)NC(C)(C)C2` ; what AC50 value has been reported?
Solution: 3.3 µM (active)

Problem: Suppose we examine the compound `COc1ccc(C)cc1NC(=O)c1cc2c(CO)cnc(C)c2oc1=N` ; what AC50 value has been reported?
Solution: 7.55 µM (active)

Problem: Suppose we examine the compound `COc1ccc(S(=O)(=O)Cc2ccc(C(=O)N3CCN(c4ccccc4)CC3)o2)cc1` ; what AC50 value has been reported?
Solution: 19.1 µM (active)

Problem: Suppose we examine the compound `Cc1nn(-c2ccccc2)c2sc(-c3nnc(S)o3)cc12` ; what AC50 value has been reported?
Solution: 2.63 µM (active)
